assay: Multisite microdialysis pharmacokinetics after molnupiravir; assay type: in vivo, rat; conditions: female, Sprague-Dawley, rat, placenta dialysate, iv, 100 mg/kg
Measurement name: Cmax (ng/mL)
One number for each entry, in ng/mL.

Asked: Which Cmax value belongs to `CC(C)C(=O)OC[C@H]1O[C@@H](n2ccc(NO)nc2=O)[C@H](O)[C@@H]1O` ?
Given back: 2560

====

assay: Multisite microdialysis pharmacokinetics after molnupiravir; assay type: in vivo, rat; conditions: female, Sprague-Dawley, rat, blood, iv, 100 mg/kg, with NBMPR (ENT inhibitor) 10 mg/kg i.v., co-administered
Measurement name: AUC(0-inf)

Asked: Which AUC(0-inf) value belongs to CC(C)C(=O)OC[C@H]1O[C@@H](n2ccc(NO)nc2=O)[C@H](O)[C@@H]1O [Molnupiravir] ?
Given back: 49600 ng·h/mL

====

experiment: Multisite microdialysis pharmacokinetics after molnupiravir; format: in vivo, rat; settings: female, Sprague-Dawley, rat, blood dialysate, iv, 100 mg/kg
Measurement name: half-life (min)
One number for each entry, in min.

Asked: Which half-life value belongs to `CC(C)C(=O)OC[C@H]1O[C@@H](n2ccc(NO)nc2=O)[C@H](O)[C@@H]1O` ?
Given back: 11

====

assay: Multisite microdialysis pharmacokinetics after molnupiravir; format: in vivo, rat; conditions: female, Sprague-Dawley, rat, fetus dialysate, iv, 100 mg/kg
Measurement name: half-life

Asked: Which half-life value belongs to CC(C)C(=O)OC[C@H]1O[C@@H](n2ccc(NO)nc2=O)[C@H](O)[C@@H]1O [Molnupiravir] ?
Given back: 29 min

====

test: Multisite microdialysis pharmacokinetics after molnupiravir; type: in vivo, rat; conditions: female, Sprague-Dawley, rat, fetus (relative to blood), iv, 100 mg/kg
Measurement name: Kp
Answers are plain numbers.

Asked: Which Kp value belongs to `CC(C)C(=O)OC[C@H]1O[C@@H](n2ccc(NO)nc2=O)[C@H](O)[C@@H]1O` ?
Given back: 0.03

====

assay: Multisite microdialysis pharmacokinetics after molnupiravir; assay type: in vivo, rat; conditions: female, Sprague-Dawley, rat, blood, iv, 100 mg/kg, with NBMPR (ENT inhibitor) 10 mg/kg i.v., co-administered
Measurement name: half-life (min)
Give bare numbers, in min.

Asked: Which half-life value belongs to `CC(C)C(=O)OC[C@H]1O[C@@H](n2ccc(NO)nc2=O)[C@H](O)[C@@H]1O` ?
Given back: 12

The values you see were collected from paper PMC10427982.
